Listing of recorded inhibition at 1 µM by entry.
biological target: serotonin 5-HT1A receptor (Rattus norvegicus, UniProt P19327); assay: serotonin 5-HT1A receptor binding, displacement of [3H] 8-OHDPAT; set-up: following the procedure of Hall et al., J. Neurochem; 44 1685 (1985); from tissue; conditions: at 1 μM
Sequence (P19327 whole entry): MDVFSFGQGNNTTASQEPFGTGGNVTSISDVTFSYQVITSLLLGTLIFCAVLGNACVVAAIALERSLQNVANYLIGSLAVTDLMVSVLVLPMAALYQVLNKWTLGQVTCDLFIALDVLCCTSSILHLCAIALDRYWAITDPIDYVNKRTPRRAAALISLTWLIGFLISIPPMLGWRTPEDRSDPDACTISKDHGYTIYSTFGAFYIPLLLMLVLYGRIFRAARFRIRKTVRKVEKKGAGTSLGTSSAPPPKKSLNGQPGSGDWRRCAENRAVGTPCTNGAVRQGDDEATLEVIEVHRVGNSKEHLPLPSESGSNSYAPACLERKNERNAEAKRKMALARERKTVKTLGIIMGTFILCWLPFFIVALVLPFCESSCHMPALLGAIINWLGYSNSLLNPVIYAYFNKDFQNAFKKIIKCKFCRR
Response body: numeric value in %, unit text excluded.

Need inhibition at 1 µM, item O=C1C2CC(C(=O)N1CCCCNCC1COc3ccccc3O1)C1C2C2C3CC4C2C4C31 (stereo not shown) [Example 1]
96

Others:
Need inhibition at 1 µM, item O=C1C2C3C=CC(C4CC34)C2C(=O)N1CCCCNCC1COc2ccccc2O1 (stereo not shown) [Example 5]
100

Need inhibition at 1 µM, item O=C1C2C(C(=O)N1CCCCNCC1COc3ccccc3O1)C1C3CC4C(C32)C41 (stereo not shown) [Example 2]
96

Need inhibition at 1 µM, item O=C1C2C3C=CC(C4C=CC43)C2C(=O)N1CCCCNCC1COc2ccccc2O1 (stereo not shown) [Example 4]
100

----------
Listing of recorded inhibition at 1 µM by entry.
molecular target: dopamine D-2 receptor (Rattus norvegicus, UniProt P61169); construct: from tissue; host or cells: homogenized limbic brain tissue; test: dopamine D-2 receptor binding, displacement of 3H-spiroperidol, homogenized limbic brain tissue
Sequence (P61169 whole entry): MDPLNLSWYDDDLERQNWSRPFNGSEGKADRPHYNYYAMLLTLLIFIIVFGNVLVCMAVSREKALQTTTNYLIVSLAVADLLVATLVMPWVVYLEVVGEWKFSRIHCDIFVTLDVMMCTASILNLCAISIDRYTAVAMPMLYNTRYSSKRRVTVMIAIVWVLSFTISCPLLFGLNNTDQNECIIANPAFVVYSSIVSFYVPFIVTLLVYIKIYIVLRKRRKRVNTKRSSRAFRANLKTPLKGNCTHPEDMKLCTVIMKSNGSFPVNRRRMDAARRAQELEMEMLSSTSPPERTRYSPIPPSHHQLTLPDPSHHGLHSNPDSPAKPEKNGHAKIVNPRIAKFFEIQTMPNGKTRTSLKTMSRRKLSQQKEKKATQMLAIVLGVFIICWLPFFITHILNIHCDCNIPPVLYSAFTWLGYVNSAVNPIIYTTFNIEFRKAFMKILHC
Response body: numeric value in %, unit text excluded.

Need inhibition at 1 µM, item O=C1C2C3C=CC(C4C=CC43)C2C(=O)N1CCCCNCC1COc2ccccc2O1 (stereo not shown)
100

Need inhibition at 1 µM, item O=C1C2C3C=CC(C4CC34)C2C(=O)N1CCCCNCC1COc2ccccc2O1 (stereo not shown)
100

Need inhibition at 1 µM, item CC1(C)[C@@H]2CC[C@@]1(C)C(=O)N(CCNCC1COc3ccccc3O1)C2=O (stereo partly shown)
61

Need inhibition at 1 µM, item O=C1C2C(C(=O)N1CCCCNCC1COc3ccccc3O1)C1C3CC4C(C32)C41 (stereo not shown)
100

Need inhibition at 1 µM, item O=C1C2C3C=CC(C4C=CC43)C2C(=O)N1CCNCC1COc2ccccc2O1 (stereo not shown)
54

Need inhibition at 1 µM, item O=C1C2CC(C(=O)N1CCCCNCC1COc3ccccc3O1)C1C2C2C3CC4C2C4C31 (stereo not shown)
100

Need inhibition at 1 µM, item O=C1C2CC(C(=O)N1CCNCC1COc3ccccc3O1)C1C2C2C3CC4C2C4C31 (stereo not shown)
89
